Source of measurements: the supplement of paper PMC8671470

# key: entry, value: cell viability
test system: KG-1; test: cell viability (% survival relative to DMSO control, bortezomib = 0%); higher = less cytotoxic; conditions: 100 nM; 72 h
Write down the numeric answer in % and omit the unit.

compound | test-result
CCCCCCCCCCCCCCOc1ccc(C(=O)O)o1 | 116
Cc1cc(O)c2c(c1)C(=O)c1cc(O)cc(O)c1C2=O | 96.1
CN1CC(=O)N2[C@H](c3ccc4c(c3)OCO4)c3[nH]c4ccccc4c3C[C@@H]2C1=O | 99.8
N=C(N)c1ccc(N=NNc2ccc(C(=N)N)cc2)cc1 | 114
N#Cc1ccc(C2CCCc3cncn32)cc1 (configuration not stated) | 89.5

Value lookup for cell viability; key = CN(C)C(=N)NC(=N)N
101

Param item = Fc1ccc(CNc2ncnc3ccc(F)cc23)cc1 ; retrieve measured cell viability.
103
